From: the supplement of paper PMC9112550

- System: Escherichia coli TOP10;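 further: peptides expressed intracellularly from a pBAD plasmid library in pooled LB shake-flask culture, induced with 0.3% L-arabinose, DNA abundance read by NGS, three biological replicates, DESeq2 with apeglm shrinkage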
- method: shrunken log2 fold change of peptide-encoding DNA abundance (4.5 h post-induction vs induction); higher = less antimicrobial activity (less host growth inhibition)
- condition label: time post-induction: 4.5 h; library: site-saturation at positions 5, 18, 19, 20

# input sequence, shrunken log2 fold change
data = [
    ("RRIRARPPRLPRPRPRPHIGPRP", -0.175),
    ("RRIRHRPPRLPRPRPRPYVRPRP", 0.017),
    ("RRIRERPPRLPRPRPRPLKMPRP", -0.175),
    ("RRIRARPPRLPRPRPRPEFEPRP", 0.75),
    ("RRIRVRPPRLPRPRPRPLGIPRP", -0.105),
    ("RRIRTRPPRLPRPRPRPFYHPRP", -0.486),
    ("RRIRDRPPRLPRPRPRPEENPRP", 1.11),
    ("RRIRTRPPRLPRPRPRPVFEPRP", -0.289),
    ("RRIRPRPPRLPRPRPRPRADPRP", 0.335),
    ("RRIRGRPPRLPRPRPRPADGPRP", -0.133),
    ("RRIRSRPPRLPRPRPRPLFFPRP", -0.172),
    ("RRIRKRPPRLPRPRPRPSDAPRP", -0.0187),
    ("RRIRGRPPRLPRPRPRPQHIPRP", -0.281),
    ("RRIRRRPPRLPRPRPRPSQHPRP", 0.0591),
]
